molecular target: Bifunctional dihydrofolate reductase-thymidylate synthase (Plasmodium falciparum K1, UniProt P13922); assay: Inhibition of wild type Plasmodium falciparum DHFR using DHF as substrate assessed as inhibition constant in presence of NADPH by UV-Vis spectrometry analysis
Sequence (P13922 whole entry): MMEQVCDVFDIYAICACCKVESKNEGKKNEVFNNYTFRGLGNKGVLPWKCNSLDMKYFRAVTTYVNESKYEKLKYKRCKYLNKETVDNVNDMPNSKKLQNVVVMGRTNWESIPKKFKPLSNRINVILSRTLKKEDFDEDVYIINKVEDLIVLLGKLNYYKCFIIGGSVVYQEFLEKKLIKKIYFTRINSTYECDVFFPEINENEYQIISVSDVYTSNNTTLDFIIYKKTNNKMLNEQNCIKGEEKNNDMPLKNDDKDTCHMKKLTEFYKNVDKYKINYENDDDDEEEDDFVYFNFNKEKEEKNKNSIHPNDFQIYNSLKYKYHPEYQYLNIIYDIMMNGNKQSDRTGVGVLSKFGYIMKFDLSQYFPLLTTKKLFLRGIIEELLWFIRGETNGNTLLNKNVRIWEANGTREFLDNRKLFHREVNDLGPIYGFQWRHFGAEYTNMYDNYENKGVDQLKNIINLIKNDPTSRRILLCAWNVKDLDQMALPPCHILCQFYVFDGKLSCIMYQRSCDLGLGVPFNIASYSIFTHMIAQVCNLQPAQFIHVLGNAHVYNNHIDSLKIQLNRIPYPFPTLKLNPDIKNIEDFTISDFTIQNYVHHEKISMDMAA
measure: pKi
Give bare numbers, as −log10 of the molar value.

For each of the items listed, what is its pKi?
1. CCc1nc(N)nc(N)c1Cc1cccc(-c2ccc(C(=O)O)cc2)c1.Cl.Cl
2. CCc1nc(N)nc(N)c1Cc1cccc(-c2ccc(C(=O)OC)cc2)c1
3. CCc1nc(N)nc(N)c1Cc1ccc(-c2cccc(C(=O)O)c2)cc1.Cl
4. CCc1nc(N)nc(N)c1Cc1ccc(-c2cccc(C(=O)OC)c2)cc1.Cl
5. CCc1nc(N)nc(N)c1Cc1cccc(-c2cccc(C(=O)O)c2)c1
6. CCc1nc(N)nc(N)c1Cc1cccc(-c2cccc(C(=O)OC)c2)c1
7. CCc1nc(N)nc(N)c1Cc1ccc(-c2ccc(C(=O)OC)cc2)cc1.Cl
8. CCc1nc(N)nc(N)c1Cc1ccc(-c2ccc(C(=O)O)cc2)cc1.Cl

Reply:
9.32
9.60
9.54
9.54
9.64
9.68
8.97
8.80
